- Test system: SF-539 CNS
- EXPERIMENTAL DETAILS: NCI tumour cell line growth inhibition, 48 h
PARAMETER: GI50

Challenge: Name the reported GI50 value associated with the molecule O=[N+]([O-])c1ccc(N=Nc2c(Cl)cc(O)cc2Cl)cc1
Response given: 3.1 µM

Challenge: // repeat for COc1cc2c(/C=C3/C(=O)Nc4ccc(O)cc43)c(Cl)n(Cc3cc(OC)c(OC)c(OC)c3)c2cc1C and report
Response given: 2.24 µM

Challenge: Another molecule to check: COc1ccc2nc3c(cc2c1)C(=O)CC(c1ccccc1)C3 (stereo not given)
Response given: 1.22 µM

Challenge: Also check C/C(CC(C)(C)N1CC1)=N\NC(=O)Nc1cccc2ccccc12
Response given: 3.35 µM

Challenge: Continue with Cc1ccc(-c2nc(/C=N/Nc3cc(C)nc4ccc(Br)cc34)c(C)o2)cc1
Response given: 1.72 µM
